For each of the molecules below, state its Mean relative activity.
# Test system: K562 CRISPRi cells
# Test details: Constant region variant library pooled growth screen, K562
# Assay type: cell-based, human
# Cond: sgRNA constant region variants; activity relative to the unmodified constant region cr995
The answer should be written as a number, with no unit following it.

GET /value?item= cr257 (nucleic acid, listed as DNA, chemistry not fully specified) guide: GTTTAAGAGCTAAGCTGGAAACAGCATAGCAAGTTTAAATCAGGCTAGTCCGTTATCAACTTGAAAAAGTTGCACCGAGTCGGTGCT &field=Mean relative activity returns 0.1109

GET /value?item= cr907 (nucleic acid, listed as DNA, chemistry not fully specified) guide: GTTTAAGAGCTAAGCTGGAAACAGCATAGCAAGTTTAAATAAGGCTAGTCCATTATCAACTTGTAAAAGTGGCACCGATTCGGTGCT &field=Mean relative activity returns 0.2821

GET /value?item= cr468 (nucleic acid, listed as DNA, chemistry not fully specified) guide: GTTTAAGAGCTAAGCTGGAAACAGCATAGCAAGATTAAATAAGGCTAGTCCGTTATCAACTTGAAAAAGTGGCACCGAGTCGGTGCT &field=Mean relative activity returns 0.32

GET /value?item= cr091 (nucleic acid, listed as DNA, chemistry not fully specified) guide: GTTTTACAGCTAAGCTGGAAACAGCATAGCAAGTTTAAATAAGGCTAGTCCGTTATCAACTTGAAAAAGTGGCACCGAGTCGGTGCT &field=Mean relative activity returns 0.1366
